# Tested on: MHH-CALL-4 cells
# Assay details: Cytotoxicity assay (resazurin, 72 hours)
# Type: cell-based
# Set-up: unit not given beside the values
# Condition label: area under the dose-response curve
Range-based classes on measured AUC: b0 = under 100, b1 = from 100 up to 200, b2 = 200 and over

Check out these entries, answers already filled in.
Query block: Please classify: CCS(=O)(=O)N1CC(CC#N)(n2cc(-c3nc(Nc4ccc(C(=O)NCCCCCCCNc5cccc(C6CCC(=O)NC6=O)c5)cc4)nc4[nH]ccc34)cn2)C1 (centres unmarked) [Compound 34]
Result block: b2

Query block: // return the class label for CCS(=O)(=O)N1CC(CC#N)(n2cc(-c3nc(Nc4ccc(C(=O)NCCCNC(=O)COc5ccc(C6CCC(=O)NC6=O)cc5)cc4)nc4[nH]ccc34)cn2)C1 (centres unmarked) [Compound 18]
Result block: b0

Query block: Please report the category associated with CCS(=O)(=O)N1CC(CC#N)(n2cc(-c3nc(Nc4ccc(C(=O)NCCC5CCN(c6ccc7c(c6)C(=O)N(C6CCC(=O)NC6=O)C7=O)CC5)cc4)nc4[nH]ccc34)cn2)C1 (centres unmarked) [Compound 32] , nothing else.
Result block: b2

Query block: Class? Entry: N#CC[C@H](C1CCCC1)n1cc(-c2nc(Nc3ccc(C(=O)NCCCCOc4ccc(C5CCC(=O)NC5=O)cc4)cc3)nc3[nH]ccc23)cn1 (some centres unmarked) [Compound 36]
Result block: b1

Query block: Category of CCCn1cc(-c2nc(Nc3ccc(C(=O)N4CCN(c5cccc6c5C(=O)N(C5CCC(=O)NC5=O)C6=O)CC4)cc3)nc3[nH]ccc23)cn1 (centres unmarked) [Compound 26] , please.
Result block: b2

Query block: // return the class label for N#CC[C@H](C1CCCC1)n1cc(-c2nc(Nc3ccc(C(=O)NCCCN4CCN(c5ccc(C6CCC(=O)NC6=O)cc5)CC4)cc3)nc3[nH]ccc23)cn1 (some centres unmarked) [Compound 38]
Result block: b1

Query block: For CCS(=O)(=O)N1CC(CC#N)(n2cc(-c3nc(Nc4ccc(C(=O)NCCCN5CC6CCC(C5)N6c5ccc(C6CCC(=O)NC6=O)cc5)cc4)nc4[nH]ccc34)cn2)C1 (centres unmarked) [Compound 55] , which AUC bin applies?
Result block: b1

Query block: Using the reported AUC, which band applies to CCS(=O)(=O)N1CC(CC#N)(n2cc(-c3nc(Nc4ccc(C(=O)NCCCN5CC6CCC5CN6c5ccc(C6CCC(=O)NC6=O)cc5)cc4)nc4[nH]ccc34)cn2)C1 (centres unmarked) [Compound 54] ?
Result block: b0

Query block: The entry to classify is CCS(=O)(=O)N1CC(CC#N)(n2cc(-c3nc(Nc4ccc(C(=O)N5CCN(c6ccc(C7CCC(=O)NC7=O)cc6)CC5)cc4)nc4[nH]ccc34)cn2)C1 (centres unmarked) [Compound 2] ; which class holds it?
Result block: b1

Next:
Query block: Which bin should I file CCS(=O)(=O)N1CC(CC#N)(n2cc(-c3nc(Nc4ccc(C(=O)NCCCCN5CCN(c6ccc7c(c6)C(=O)N(C6CCC(=O)NC6=O)C7=O)CC5)cc4)nc4[nH]ccc34)cn2)C1 (centres unmarked) [Compound 20] under?
Result block: b1

----------
Measured remaining activity at 0.1 µM by item
# Assay target: JAK3 (Homo sapiens, UniProt P52333)
# Construct: endogenous in cells; host or cells: MHH-CALL-4
# Sequence (P52333 1-1124): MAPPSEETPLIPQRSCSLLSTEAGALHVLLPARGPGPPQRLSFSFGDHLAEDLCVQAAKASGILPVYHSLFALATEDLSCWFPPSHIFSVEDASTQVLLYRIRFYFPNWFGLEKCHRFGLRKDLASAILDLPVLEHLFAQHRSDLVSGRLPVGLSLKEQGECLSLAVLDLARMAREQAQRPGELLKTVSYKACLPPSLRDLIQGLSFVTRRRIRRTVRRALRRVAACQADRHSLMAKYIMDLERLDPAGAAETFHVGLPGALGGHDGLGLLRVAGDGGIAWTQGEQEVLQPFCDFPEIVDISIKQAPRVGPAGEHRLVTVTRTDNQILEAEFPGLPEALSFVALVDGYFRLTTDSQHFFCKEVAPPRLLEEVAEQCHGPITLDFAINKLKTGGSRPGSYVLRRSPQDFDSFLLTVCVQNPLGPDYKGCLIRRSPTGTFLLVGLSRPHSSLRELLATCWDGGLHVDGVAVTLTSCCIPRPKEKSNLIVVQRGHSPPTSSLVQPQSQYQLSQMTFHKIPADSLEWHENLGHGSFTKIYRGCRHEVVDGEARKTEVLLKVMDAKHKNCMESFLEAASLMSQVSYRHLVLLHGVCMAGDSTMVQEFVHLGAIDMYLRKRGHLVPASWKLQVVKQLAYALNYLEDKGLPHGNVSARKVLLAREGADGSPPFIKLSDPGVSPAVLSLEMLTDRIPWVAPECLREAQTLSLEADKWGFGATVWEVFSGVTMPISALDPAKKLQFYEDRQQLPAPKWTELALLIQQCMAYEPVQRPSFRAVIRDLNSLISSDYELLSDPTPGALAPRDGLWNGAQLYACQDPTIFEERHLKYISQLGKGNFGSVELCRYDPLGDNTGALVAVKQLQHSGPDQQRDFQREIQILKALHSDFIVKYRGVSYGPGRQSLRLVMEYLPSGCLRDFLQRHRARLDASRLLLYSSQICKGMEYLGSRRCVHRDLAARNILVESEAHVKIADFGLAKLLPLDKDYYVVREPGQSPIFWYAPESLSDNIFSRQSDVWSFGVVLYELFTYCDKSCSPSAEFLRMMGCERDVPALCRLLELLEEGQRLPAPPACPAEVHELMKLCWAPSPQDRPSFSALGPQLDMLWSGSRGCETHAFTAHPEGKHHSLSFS
# Assay details: Western blot assay, JAK3 protein degradation
# Assay type: cell-based
# Condition label: MHHCALL4; 100 nM, 24 h; MHH-CALL-4 cells; vehicle control = 100%; read-out: Target Protein Degradation (% remaining at 100 nM, 24 h) JAK3
A number alone suffices; assume %.

Query block: Tell me remaining activity at 0.1 µM of CCS(=O)(=O)N1CC(CC#N)(n2cc(-c3nc(Nc4ccc(C(=O)NCCCN5CC6CCC(C5)N6c5ccc(C6CCC(=O)NC6=O)cc5)cc4)nc4[nH]ccc34)cn2)C1 (centres unmarked) when tested on JAK3 (Homo sapiens, UniProt P52333).
Result block: 44

Query block: Output reported remaining activity at 0.1 µM of the molecule CCS(=O)(=O)N1CC(CC#N)(n2cc(-c3nc(Nc4ccc(C(=O)NCCCCOc5ccc(C6CCC(=O)N(C)C6=O)cc5)cc4)nc4[nH]ccc34)cn2)C1 (centres unmarked) on JAK3 (Homo sapiens, UniProt P52333).
Result block: 101

Query block: GET remaining activity at 0.1 µM | system: JAK3 (Homo sapiens, UniProt P52333) | item: CCS(=O)(=O)N1CC(CC#N)(n2cc(-c3nc(Nc4ccc(C(=O)N5CCC6(CCN(c7ccc(C8CCC(=O)NC8=O)cc7)CC6)C5)cc4)nc4[nH]ccc34)cn2)C1 (centres unmarked)
Result block: 27

Query block: Enter remaining activity at 0.1 µM (test system JAK3 (Homo sapiens, UniProt P52333)) for CCS(=O)(=O)N1CC(CC#N)(n2cc(-c3nc(Nc4ccc(C(=O)NCCCCOc5cccc(C6CCC(=O)NC6=O)c5)cc4)nc4[nH]ccc34)cn2)C1 (centres unmarked)
Result block: 46

More entries:
Query block: State recorded remaining activity at 0.1 µM with JAK3 (Homo sapiens, UniProt P52333), entry CCS(=O)(=O)N1CC(CC#N)(n2cc(-c3nc(Nc4ccc(C(=O)N5CCC6(CC5)CCN(c5ccc(C7CCC(=O)NC7=O)cc5)CC6)cc4)nc4[nH]ccc34)cn2)C1 (centres unmarked) , no comment.
Result block: 28
